- System: CCRF-CEM
- experimental.details: NCI tumour cell line growth inhibition, 48 h
Active and inactive are the calls of the source. Rule as the data show it: active = GI50 up to about 1.1 µM and inactive = higher.
Lab note: assign the record to one of true (active), false (inactive)

In: Call for entry "Cc1ccc(O)c(-c2cscn2)c1" :
Out: true

In: Call for entry "S=C(S)N1CCN(c2cccc(Cl)c2)CC1" :
Out: false

In: Call for entry N#C[C@H]1C(=O)C(c2nc3ccccc3[nH]2)S[C@H]1c1ccccc1 (some centres undefined) :
Out: false

In: Call for entry "COc1ccc(NC2=NCCO2)c2c1CCCC2" :
Out: false

In: Call for entry NC(=O)c1cccc(OCC(O)CO)c1 (centres undefined) :
Out: false

In: Call for entry "O=C(O)c1oc2cccc3c2c1CCC3" :
Out: false

In: Call for entry "CNS(=O)(=O)NNS(=O)(=O)c1ccc(Br)cc1" :
Out: false

In: Call for entry "CCCNC(=O)Cn1c(-c2ccccc2)cc2ccccc21" :
Out: false

In: Call for entry O=C1c2cc3c(cc2CC1Cc1ccc2c(c1)CCC2)CCC3 (centres undefined) :
Out: false

In: Call for entry "Cc1n[nH]c(=O)n1Nc1ccccc1" :
Out: false

In: Call for entry "O=C(NC(Cl)(C(F)(F)F)C(F)(F)F)c1ccc(F)cc1" :
Out: false

In: Call for entry "CC(=O)O[C@H]1[C@H](OC(C)=O)[C@@H](CN=[N+]=[N-])OCO[C@@H]1CN=[N+]=[N-]" :
Out: false

In: Call for entry "OC1=CN=C(c2ccccc2)Oc2ccccc21" :
Out: false

In: Call for entry "COc1cc(Oc2nc3ccccc3nc2C(=O)O)cc(OC)c1OC" :
Out: false

In: Call for entry "CN1CCN(C(=S)N(C)C(=O)c2ccco2)CC1" :
Out: false

In: Call for entry COC(=O)C(C)NP(=O)(N1CC1)N1CC1 (centres undefined) :
Out: false

In: Call for entry "CC[C@@]1(OC(=O)CN(C)C)C(=O)OCc2c1cc1n(c2=O)Cc2cc3ccccc3nc2-1" :
Out: true

In: Call for entry "COc1ccc(/N=C2\C(=N/c3ccc(OC)cc3)N(c3ccc(N(C)C)cc3)C(=S)N2c2ccc(OC)cc2)cc1" :
Out: false

In: Call for entry "Fc1cccc2cc3ccc4cccc5ccc(c12)c3c45" :
Out: false

In: Call for entry "CN(/N=C/c1ccccn1)C1=NCCN1" :
Out: false

In: Call for entry "O=C(O)Cn1c(=O)[nH]c(=O)c2c1ncn2Cc1ccccc1" :
Out: false

In: Call for entry "CCOC(=O)c1nc(C)oc1C(F)(F)F" :
Out: false

In: Call for entry Cc1cccc2c1N(C(=O)/C=C\C(=O)O)C(c1c(C)[nH]c3ccccc13)C2 (centres undefined) :
Out: false

In: Call for entry CCOc1ccc(/N=N/C2C(=O)N(C(=O)CC(=O)Nc3ccccc3)N=C2C)cc1 (centres undefined) :
Out: false
